Source listed as patent US20240408169A1.

# target_or_test_system: CyclinE1/CDK2 (Homo sapiens)
# Construct: purchased Eurofins, discovery 14-475
# assay_remarks: Fluorescence Polarization (FP) competitive binding assay, Cyclin E1/Cdk2;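 further: readings taken after two-hour equilibration at room temperature in HEPES buffer with NaCl, DTT, NP-40 and BSA, IC50 fitted from eight-concentration serial dilution series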
# condition_summary: 10 nM Cyclin E1/Cdk2, 2 nM FAM probe; average of 2-3 independent experiments; read-out: Cyclin E FP IC50
*1 amine or outer side, *2 acyl side, *3 side chain or, on linkers, in order; H or OH if unused. Where a SMILES comes first, the peptide text is derived from it. Bridges are numbered along the chain shown (N, C = ends). [ ]: non-standard residue; d: D form. The star is where a group is joined. NMePhe(2-(4-MorPh),5-Cl) = CN[C@@H](Cc1cc(Cl)ccc1-c1ccc(N2CCOCC2)cc1)C(=O)O; X85 = CN([C@@H](Cc1cc(Cl)ccc1-c1ccc([C@]23CCOC[C@H]2C3)nc1)C(=O)[*:2])[*:1]; X70 = CN1CCC[C@@H](c2ccc(-c3ccc(Cl)cc3C[C@@H](C(=O)[*:2])N(C)[*:1])cc2)C1; X185 = CN([C@@H](Cc1cc(Cl)ccc1-c1ccc(N2CCOC(C)(C)C2)cc1)C(=O)[*:2])[*:1]; X107 = CN([C@@H](Cc1cc(Cl)ccc1-c1ccc(-c2cnn(C)c2)cc1)C(=O)[*:2])[*:1]; X26 = CN([C@@H](Cc1cc(F)ccc1-c1cnn(C2CC2)c1)C(=O)[*:2])[*:1]; NMehhhLys(Me) = CN([C@@H](CCCCCCCN(C)[*:3])C(=O)[*:2])[*:1]; cBuCO(3,3-F2-1-CF3) = O=C(C1(C(F)(F)F)CC(F)(F)C1)*; Pro(trans-4-F) = O=C(O)[C@@H]1C[C@@H](F)CN1; X201 = O=C(C1(C(F)F)CC(F)(F)C1)*; Gly(cPr) = N[C@H](C(=O)O)C1CC1
attribute_measured: IC50
Answer as a quantity: numeral, then unit.

QUERY: Entry under review: CC(C)C[C@@H]1NC(=O)[C@@H](N(C)C(=O)[C@@H](NC(=O)[C@@H]2C[C@@H](F)CN2C(=O)C2(C(F)(F)F)CC(F)(F)C2)C2CC2)CCCCCCCN(C)C(=O)[C@H](Cc2cc(Cl)ccc2-c2ccc(N3CCOC(C)(C)C3)cc2)N(C)C1=O [Example 366] ({cBuCO(3,3-F2-1-CF3)}-[Pro(trans-4-F)][Gly(cPr)][NMehhhLys(Me)]L[X185]; lactam 3-C) . Reported IC50?
RESULT: 1.05 µM

QUERY: Entry under review: CC(C)C[C@@H]1NC(=O)[C@@H](N(C)C(=O)[C@@H](NC(=O)[C@@H]2C[C@@H](F)CN2C(=O)C2(C(F)F)CC(F)(F)C2)C2CC2)CCCCCCCN(C)C(=O)[C@H](Cc2cc(Cl)ccc2-c2ccc(N3CCOCC3)cc2)N(C)C1=O [Example 350] (X201-[Pro(trans-4-F)][Gly(cPr)][NMehhhLys(Me)]L[NMePhe(2-(4-MorPh),5-Cl)]; lactam 3-C) . Reported IC50?
RESULT: 0.88 µM

QUERY: Entry under review: CC(C)C[C@@H]1NC(=O)[C@@H](N(C)C(=O)[C@@H](NC(=O)[C@@H]2C[C@@H](F)CN2C(=O)C2(C(F)(F)F)CC(F)(F)C2)C2CC2)CC=CCCCCNC(=O)[C@H](Cc2cc(Cl)cnc2OC2CC2)N(C)C1=O [Example 129] . Reported IC50?
RESULT: 0.82 µM

QUERY: Entry under review: CC(C)C[C@@H]1NC(=O)[C@@H](N(C)C(=O)[C@@H](NC(=O)[C@@H]2C[C@@H](F)CN2C(=O)C2(C(F)(F)F)CC(F)(F)C2)C2CC2)CC=CCCCCNC(=O)[C@H](Cc2cc(Cl)ccc2C2=CCN(C(=O)C(C)C)CC2)N(C)C1=O [Example 90] . Reported IC50?
RESULT: 3.7 µM

QUERY: Entry under review: CC(C)C[C@@H]1NC(=O)[C@@H](N(C)C(=O)[C@@H](NC(=O)[C@@H]2C[C@@H](F)CN2C(=O)C2(C(F)(F)F)CC(F)(F)C2)C2CC2)CCCCCCCN(C)C(=O)[C@H](Cc2cc(F)ccc2-c2cnn(C3CC3)c2)N(C)C1=O [Example 68] ({cBuCO(3,3-F2-1-CF3)}-[Pro(trans-4-F)][Gly(cPr)][NMehhhLys(Me)]L[X26]; lactam 3-C) . Reported IC50?
RESULT: 0.12 µM

***
QUERY: Entry under review: CC(C)C[C@@H]1NC(=O)[C@@H](N(C)C(=O)[C@@H](NC(=O)[C@@H]2C[C@@H](F)CN2C(=O)C2(C(F)(F)F)CC(F)(F)C2)C2CC2)CC=CCCCCNC(=O)[C@H](Cc2cc(Cl)ccc2Cl)N(C)C1=O (single isomer, unassigned) [Example 6-P2] . Reported IC50?
RESULT: 0.24 µM

QUERY: Entry under review: CC(C)C[C@@H]1NC(=O)[C@@H](N(C)C(=O)[C@@H](NC(=O)[C@@H]2C[C@@H](F)CN2C(=O)C2(C(F)(F)F)CC(F)(F)C2)C2CC2)CCCCCCCN(C)C(=O)[C@H](Cc2cc(Cl)ccc2-c2ccc([C@@H]3CCCN(C)C3)cc2)N(C)C1=O [Example 411] ({cBuCO(3,3-F2-1-CF3)}-[Pro(trans-4-F)][Gly(cPr)][NMehhhLys(Me)]L[X70]; lactam 3-C) . Reported IC50?
RESULT: 0.76 µM

QUERY: Entry under review: CC(C)C[C@@H]1NC(=O)[C@@H](N(C)C(=O)[C@@H](NC(=O)[C@@H]2C[C@@H](F)CN2C(=O)C2(C(F)(F)F)CC(F)(F)C2)C2CC2)CCCCCCCN(C)C(=O)[C@H](Cc2cc(Cl)ccc2-c2ccc(-c3cnn(C)c3)cc2)N(C)C1=O [Example 338] ({cBuCO(3,3-F2-1-CF3)}-[Pro(trans-4-F)][Gly(cPr)][NMehhhLys(Me)]L[X107]; lactam 3-C) . Reported IC50?
RESULT: 1.7 µM

QUERY: Entry under review: CC(C)C[C@@H]1NC(=O)[C@@H](N(C)C(=O)[C@@H](NC(=O)[C@@H]2C[C@@H](F)CN2C(=O)C2(C(F)(F)F)CC(F)(F)C2)C2CC2)CCCCCCCN(C)C(=O)[C@H](Cc2cc(Cl)ccc2-c2ccc([C@]34CCOC[C@H]3C4)nc2)N(C)C1=O [Example 369] ({cBuCO(3,3-F2-1-CF3)}-[Pro(trans-4-F)][Gly(cPr)][NMehhhLys(Me)]L[X85]; lactam 3-C) . Reported IC50?
RESULT: 1.49 µM
